GI % for assorted compounds
# Test system: MCF7
# EXPERIMENT NOTES: NCI cytotoxicity screen
# Type: cell-based, human
# ASSAY SETUP: 10.0 μM one dose; MCF-7

{"STRUCTURE STRING": "NS(=O)(=O)c1ccc(Cn2c(SCC(=O)NN=Cc3ccccc3)nc3ccccc3c2=O)cc1", "TARGET SYSTEM": "MCF7", "GI % / %": 14}
{"STRUCTURE STRING": "CCN(CC)c1ccc(C=NNC(=O)CSc2nc3ccccc3c(=O)n2Cc2ccc(S(N)(=O)=O)cc2)c(O)c1", "TARGET SYSTEM": "MCF7", "GI % / %": 87}
{"STRUCTURE STRING": "COc1cc(C(C)=NNC(=O)CSc2nc3ccccc3c(=O)n2Cc2ccc(S(N)(=O)=O)cc2)cc(OC)c1OC", "TARGET SYSTEM": "MCF7", "GI % / %": 11}
{"STRUCTURE STRING": "COc1cc(C=NNC(=O)CSc2nc3ccccc3c(=O)n2Cc2ccc(S(N)(=O)=O)cc2)cc(OC)c1OC", "TARGET SYSTEM": "MCF7", "GI % / %": 11}
{"STRUCTURE STRING": "NS(=O)(=O)c1ccc(Cn2c(SCC(=O)NN=Cc3ccccc3O)nc3ccccc3c2=O)cc1", "TARGET SYSTEM": "MCF7", "GI % / %": 50}
{"STRUCTURE STRING": "Cc1ccc(C=NNC(=O)CSc2nc3ccccc3c(=O)n2Cc2ccc(S(N)(=O)=O)cc2)cc1", "TARGET SYSTEM": "MCF7", "GI % / %": 41}
{"STRUCTURE STRING": "COc1cccc(C(C)=NNC(=O)CSc2nc3ccccc3c(=O)n2Cc2ccc(S(N)(=O)=O)cc2)c1", "TARGET SYSTEM": "MCF7", "GI % / %": 10}
